Data origin, for the record: PubChem BioAssay (NCI)

Consider the following compounds; for each one, report its TGI.
Test system: SK-MEL-5 melanoma
test details: NCI tumour cell line growth inhibition, 48 h

Cc1cc(C)c(C#N)c(SC(=S)NC(=O)c2ccc(Cl)cc2)n1: > 100 µM
COC1CC(OC2C(C)OC(OC3C(C)OC(OC4C(C)OC(O[C@H]5CC[C@@]6(C)C(=CC[C@]7(O)[C@@H]6C[C@@H](OC(=O)/C=C/c6ccccc6)[C@@]6(C)[C@]7(O)CC[C@@]6(O)C(C)=O)C5)CC4OC)CC3OC)CC2OC)OC(C)C1O (stereo not given in full): > 12.5 µM
O=C(O)c1cc(-c2ccc3c(O)ccc(O)c3c2)ccc1O: 28.2 µM

Parameters: items (list). Returns: TGI for each item.
1. Cn1c(=O)c2c(nc3sc4nc5ccccc5nc4n32)n(C)c1=O
2. CC(C)[C@]12O[C@H]1[C@@H]1O[C@]13[C@]1(O[C@H]1C[C@H]1C4=C(CC[C@@]13C)C(=O)OC4)[C@@H]2OC(=O)CN(C)C
3. CCN(CC)c1ccc2cc(-c3nc(-c4ccccc4)n[nH]3)c(=O)oc2c1
4. CCCc1cc(=O)oc2c3c(c4c(c12)OC(C)(C)CC4)O[C@H](C)[C@@H](C)[C@H]3O
5. COc1cc(/C=N/c2nncs2)ccc1O

Result block:
["> 100 µM", "0.0396 µM", "> 100 µM", "29.3 µM", "> 100 µM"]

I'm hoping you can list TGI for every compound here, please.
1. c1ccc2cc(CN3CCC(C4CCN(Cc5ccc6ccccc6c5)CC4)CC3)ccc2c1
2. CCN(CC)c1ccc(/C=C2\SC(=O)C(Nc3nnc(-c4cccnc4SCc4ccccc4)o3)C2=O)cc1 (stereo not given)
3. COc1ccc(NC(=O)C2C(=O)N(c3ccc(OC)cc3)C(=O)/C2=N\N)cc1 (stereo not given)
4. O=C1OC2C(O)COC2(O)C1(O)Cc1c[nH]c2ccccc12 (stereo not given)

Result block:
1: 3.38 µM; 2: 14.4 µM; 3: > 100 µM; 4: > 100 µM

Please look at the items below and tell me TGI for each one, in order.
1. COc1ccc(-c2cc(-c3cc(F)c(Cl)cc3Cl)[nH]n2)cc1OC
2. Cc1ccc(-c2cc(C(=O)N3N=C(c4ccc(N)cc4)CC3c3ccc(Cl)cc3)c3ccccc3n2)cc1 (stereo not given)
3. CCc1n[nH]c(=O)n1NC(=O)CCCC(=O)O
4. CN(C(=O)CC(=O)CP(=O)(c1ccccc1)c1ccccc1)c1ccccc1

Result block:
1. 47.3 µM
2. > 100 µM
3. > 100 µM
4. > 100 µM

====

System: SF-268 CNS
test details: NCI tumour cell line growth inhibition, 48 h
For each of the compounds below, state its TGI.

Recorded results for 5 compounds are shown here.
NC(=O)C1(c2ccccc2)Nc2ccccc2S1 (stereo not given): > 100 µM
Cc1cc(C)c(OC(=O)Nc2cccc3ccccc23)c(-c2ccccc2)c1: 80.1 µM
CCOC(=O)c1cc2c(c3ccsc13)C1(C)CCC3c4ccc(OC)cc4CCC3C1C2 (stereo not given): > 100 µM
FC(F)(F)c1ccc(-c2cncn2-c2ccccc2)cc1: > 100 µM
CCOC(=O)C(NC(=O)CC(C)C)(NC(C)C)C(F)(F)F (stereo not given): > 100 µM

Go through the list and state TGI for each entry.
1. CCCCCCc1nn2c(-c3ccncc3)nnc2s1
2. CC1(CO)OC(n2cnc3cncnc32)CC1O (stereo not given)
3. CC(C)[Si]1(C(C)C)OCC2OC(N3C(=O)NC(=O)C[C@@H]3C(O)c3ccccc3)CC2O[Si](C(C)C)(C(C)C)O1 (stereo not given in full)
4. COc1ccc(/C=C2/N=C(N/N=C\C(O)C(O)C(O)C(O)CO)NC2=O)cc1 (stereo not given)
5. Cc1cc(O)c2c3c1C(=O)Oc1c(CO)c(O)c(C(=O)O)c(c1O3)C=NN=Cc1c3c(c(CO)c(O)c1C(=O)O)OC(=O)c1c(C)cc(O)c(c1O3)C=NN=C2

Result block:
1. > 10 µM
2. > 100 µM
3. 10.6 µM
4. > 100 µM
5. > 100 µM
